Heads up, these compounds all have Ki values measured for Alpha-1D adrenergic receptor (Homo sapiens, UniProt P25100).
measure name: Ki (nM)

                                   compound                            assayed_target  measure_name  reported_result
0  C[C@H](Cc1cc2c(c(C(N)=O)c1)N(CCCO)CC2)NCCOc1ccccc1OCC(F)(F)F  Alpha-1D adrenergic receptor (Homo sapiens, UniProt P25100)            Ki                2
1             C=Cc1sc2ccc(Cl)c3c2c1CN(C)CC3  Alpha-1D adrenergic receptor (Homo sapiens, UniProt P25100)            Ki             3.16
2  COc1ccccc1N1CCN(CCCNc2c(C)c(=O)n(C)c(=O)n2C)CC1  Alpha-1D adrenergic receptor (Homo sapiens, UniProt P25100)            Ki               10
3  COc1ccc(Cl)cc1N1CCN(CCCNc2nccc(C(N)=O)n2)CC1  Alpha-1D adrenergic receptor (Homo sapiens, UniProt P25100)            Ki             2.51
4  CCOc1ccccc1OCCN[C@H](C)Cc1ccc(OC)c(S(N)(=O)=O)c1 (stereo in doubt; form 3) [TAMSULOSIN]  Alpha-1D adrenergic receptor (Homo sapiens, UniProt P25100)            Ki             7.94

----------
// reported Ki for each item listed
experiment: Apparent binding affinity on human 5-alpha reductase isozyme
measure name: Ki (nM)

>>> df
                                   compound  bound_operator  reported_result
0  CC(C)N(C(=O)[C@H]1CC[C@H]2[C@@H]3CCC4C=C(C(=O)O)CC[C@]4(C)[C@H]3CC[C@]12C)C(C)C (stereo partly drawn)               =               30
1  CC(C)N(C(=O)[C@H]1CCC2C3CCC4C=C([N+](=O)[O-])C=CC4(C)C3CC[C@@]21C)C(C)C (single isomer, unassigned)               >             5000
2  CC(C)N(C(=O)[C@H]1CCC2C3CC=C4C=C(CO)CC[C@]4(C)C3CC[C@@]21C)C(C)C (stereo partly drawn)               =             4200
3  CC(C)N(C(=O)[C@H]1CCC2C3CC=C4C=C(P(=O)(O)O)CC[C@]4(C)C3CC[C@@]21C)C(C)C (stereo partly drawn)               =               25
4  CC(C)N(C(=O)[C@H]1CCC2C3CC=C4C=C([PH](=O)O)CC[C@]4(C)C3CC[C@@]21C)C(C)C (stereo partly drawn)               =                7
5  CC(C)N(C(=O)[C@H]1CCC2C3CC=C4C=C([N+](=O)[O-])CC[C@]4(C)C3CC[C@@]21C)C(C)C (stereo partly drawn)               =              590
6  CC(C)N(C(=O)[C@H]1CCC2C3CC=C4C=C(C(=O)O)CC[C@]4(C)C3CC[C@@]21C)C(C)C (stereo partly drawn)               =                7
7  CC(C)N(C(=O)[C@H]1CCC2C3CCC4C=C([N+](=O)[O-])CC[C@]4(C)C3CC[C@@]21C)C(C)C (stereo partly drawn)               =               50

----------
// reported log10 of IC50 for each item listed
Target: 3-oxo-5-alpha-steroid 4-dehydrogenase 2 (Homo sapiens, UniProt P31213)
Sequence (P31213 whole entry): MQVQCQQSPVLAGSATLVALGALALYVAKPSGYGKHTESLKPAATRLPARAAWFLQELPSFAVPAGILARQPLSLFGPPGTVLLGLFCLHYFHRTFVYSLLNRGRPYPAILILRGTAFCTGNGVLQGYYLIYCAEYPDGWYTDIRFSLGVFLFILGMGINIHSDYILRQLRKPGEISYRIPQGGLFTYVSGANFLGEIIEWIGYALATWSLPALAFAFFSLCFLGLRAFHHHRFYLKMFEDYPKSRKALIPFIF
Test: Inhibition of human 5-alpha reductase 2 isozyme.
measure name: log10 of IC50 (log10 of the value in nM)

>>> print(df.to_string())
                                    molecule   measure_name  reported_result
 0  C[C@]12C=CC(=O)NC1CCC1C2CC[C@@]2(C)C1CC[C@@H]2C(=O)Nc1cc(C(F)(F)F)ccc1C(F)(F)F (some centres undefined)  log10 of IC50            -0.30
 1  CCN(CC)C(=O)[C@H]1CC[C@H]2[C@@H]3CC[C@H]4N(C)C(=O)CC[C@]4(C)[C@H]3CC[C@]12C  log10 of IC50             0.28
 2  CC(C)Cc1ccc([C@]2(C)Oc3ccc(C(=O)c4cn(CCCC(=O)O)c5ccccc45)cc3O2)cc1  log10 of IC50             1.36
 3  CC(C)Cc1ccc(C(Nc2cccc(C(=O)c3cn(CCCC(=O)O)c4ccccc34)c2)c2ccc(CC(C)C)cc2)cc1  log10 of IC50             1.56
 4  Cc1c(C(=O)c2ccc3c(c2)OC(c2ccc(Cl)cc2)(c2ccc(Cl)cc2)O3)c2ccccc2n1CCCC(=O)O  log10 of IC50             3.80
 5  CC(C)Cc1ccc([C@H](C)Oc2ccc(C(=O)c3cn(CCCC(=O)O)c4ccccc34)cc2)cc1  log10 of IC50             0.60
 6  CCCc1ccc(OC(C)c2ccc(C(=O)c3cn(CCCC(=O)O)c4ccccc34)cc2)cc1 (centres undefined)  log10 of IC50             1.00
 7  Cc1c(O[C@@H](C)c2ccc(CC(C)C)cc2)ccc(C(=O)Nc2ccccc2OCCCC(=O)O)c1C  log10 of IC50             2.41
 8         O=C(O)c1ccc2c(c1)CCc1cc(Br)ccc1-2  log10 of IC50             4.00
 9  CN(C(=O)[C@H]1CCC2C3CCC4NC(=O)C=C[C@]4(C)C3CC[C@@]21C)c1ccccc1 (some centres undefined)  log10 of IC50            -0.70
10  CC(C)CCCC(C)[C@H]1CCC2C3C(CC[C@@]21C)[C@@]1(C)CCC(=O)N(C)C1C[C@@H]3c1ccccc1 (some centres undefined)  log10 of IC50             2.63
11  C[C@]12C=CC(=O)NC1CCC1C2CC[C@@]2(C)C1CC[C@@H]2C(=O)N(c1ccccc1)c1ccccc1 (some centres undefined)  log10 of IC50             1.40
12  CC(C)Cc1ccc([C@@H](C)Oc2ccc(C(=O)c3cn(CCCC(=O)O)c4ccccc34)cc2)cc1  log10 of IC50             1.84
13  CCN1C(=O)CC[C@]2(C)C3CC[C@@]4(C)C(CC[C@@H]4C(C)CCCC(C)C)C3[C@@H](C)CC12 (some centres undefined)  log10 of IC50             3.14
14  CC(C)CCCC(C)[C@H]1CCC2C3CCC4N(C)C(=O)CC[C@]4(C)C3CC[C@@]21C (some centres undefined)  log10 of IC50             2.34
15  C[C@]12C=CC(=O)NC1CCC1C2CC[C@@]2(C)C1CC[C@@H]2C(=O)Nc1cccc2ccccc12 (some centres undefined)  log10 of IC50            -0.70

----------
Biological target: 3-oxo-5-alpha-steroid 4-dehydrogenase 1 (Homo sapiens)
Sequence (P18405 whole entry): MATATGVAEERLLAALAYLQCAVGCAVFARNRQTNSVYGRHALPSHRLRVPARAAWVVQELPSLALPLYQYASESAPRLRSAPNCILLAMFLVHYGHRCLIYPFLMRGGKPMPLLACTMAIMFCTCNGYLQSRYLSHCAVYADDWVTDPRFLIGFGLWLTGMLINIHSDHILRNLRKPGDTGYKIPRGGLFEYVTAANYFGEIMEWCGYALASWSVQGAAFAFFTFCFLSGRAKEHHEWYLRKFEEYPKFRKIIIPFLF
// reported log10 of IC50 for each item listed
measure name: log10 of IC50 (log10 of the value in nM)

>>> print(df.to_string())
                                   compound   measure_name  reported_result
0  C[C@]12C=CC(=O)NC1CCC1C2CC[C@@]2(C)C1CC[C@@H]2C(=O)Nc1cc(C(F)(F)F)ccc1C(F)(F)F (some centres not stated)  log10 of IC50             0.38
1  CC(C)Cc1ccc([C@]2(C)Oc3ccc(C(=O)c4cn(CCCC(=O)O)c5ccccc45)cc3O2)cc1  log10 of IC50             1.40
2  CC(C)CCCC(C)[C@H]1CCC2C3C(CC[C@@]21C)[C@@]1(C)CCC(=O)N(C)C1C[C@@H]3c1ccccc1 (some centres not stated)  log10 of IC50             2.13
3  CC(C)Cc1ccc([C@@H](C)Oc2ccc(C(=O)c3cn(CCCC(=O)O)c4ccccc34)cc2)cc1  log10 of IC50             2.76
4  CN1C(=O)CC[C@]2(C)c3ccc(Cl)cc3CCC12 (some centres not stated)  log10 of IC50             1.23
5  CCCc1ccc(OC(C)c2ccc(C(=O)c3cn(CCCC(=O)O)c4ccccc34)cc2)cc1 (configuration not stated)  log10 of IC50             0.90
6  CC(C)Cc1ccc([C@H](C)Oc2ccc(C(=O)c3cn(CCCC(=O)O)c4ccccc34)cc2)cc1  log10 of IC50             1.60
